System: PC-3
Protocol text: Cytotoxicity against human PC3 cells at 10 uM after 48 hrs by SRB assay
Format: functional
Condition: PC-3, 48 h, read-out: GI
Measurement name: inhibition of growth at 10 µM (%)
The response must be a number in % with no trailing unit.

Query string: Record lookup: for PC-3, what inhibition of growth at 10 µM belongs to C=C(C)[C@@H]1CC[C@]2(C(=O)O)CC[C@]3(C)[C@H](CC[C@@H]4[C@@]5(C)CC[C@H](OCc6cn(-c7cccc(OC)c7)nn6)C(C)(C)[C@@H]5CC[C@]43C)[C@@H]12 ?
Result string: 4

Query string: Record lookup: for PC-3, what inhibition of growth at 10 µM belongs to C=C(C)[C@@H]1CC[C@]2(C(=O)O)CC[C@]3(C)[C@H](CC[C@@H]4[C@@]5(C)CC[C@H](OCc6cn(-c7ccc(C(=O)c8ccccc8)cc7)nn6)C(C)(C)[C@@H]5CC[C@]43C)[C@@H]12 ?
Result string: 6

Query string: Record lookup: for PC-3, what inhibition of growth at 10 µM belongs to C=C(C)[C@@H]1CC[C@]2(C(=O)O)CC[C@]3(C)[C@H](CC[C@@H]4[C@@]5(C)CC[C@H](OCc6cn(-c7cccc(CO)c7)nn6)C(C)(C)[C@@H]5CC[C@]43C)[C@@H]12 ?
Result string: 4

---

Tested on: MCF7
Protocol text: Cytotoxicity against human MCF7 cells at 50 uM after 48 hrs by SRB assay
Format: functional
Condition: MCF7, 48 h, read-out: GI
Measurement name: inhibition of growth at 50 µM (%)
The response must be a number in % with no trailing unit.

Molecule	Tgt	Measurement name	Obs value
C=C(C)[C@@H]1CC[C@]2(C(=O)O)CC[C@]3(C)[C@H](CC[C@@H]4[C@@]5(C)CC[C@H](OCc6cn(-c7ccc(OC)cc7)nn6)C(C)(C)[C@@H]5CC[C@]43C)[C@@H]12	MCF7	inhibition of growth at 50 µM	93
C=C(C)[C@@H]1CC[C@]2(C(=O)O)CC[C@]3(C)[C@H](CC[C@@H]4[C@@]5(C)CC[C@H](OCc6cn(C7O[C@H](COC(C)=O)[C@@H](OC(C)=O)[C@H](OC(C)=O)[C@H]7OC(C)=O)nn6)C(C)(C)[C@@H]5CC[C@]43C)[C@@H]12 (some centres undefined)	MCF7	inhibition of growth at 50 µM	32
C=C(C)[C@@H]1CC[C@]2(C(=O)O)CC[C@]3(C)[C@H](CC[C@@H]4[C@@]5(C)CC[C@H](OCc6cn(-c7ccc(C(=O)c8ccccc8)cc7)nn6)C(C)(C)[C@@H]5CC[C@]43C)[C@@H]12	MCF7	inhibition of growth at 50 µM	44

Continue with the molecule presented below.
Query string: For C=C(C)[C@@H]1CC[C@]2(C(=O)O)CC[C@]3(C)[C@H](CC[C@@H]4[C@@]5(C)CC[C@H](OCc6cn(-c7ccccc7CO)nn6)C(C)(C)[C@@H]5CC[C@]43C)[C@@H]12 , what is its reported inhibition of growth at 50 µM?
Result string: 80

---

System: MCF7
Protocol text: Cytotoxicity against human MCF7 cells at 50 uM after 48 hrs by SRB assay
Assay type: functional
Condition: MCF7, 48 h, read-out: GI
Class key for inhibition of growth at 50 µM values: category 1 (below 70%), category 2 (70% to below 80%), category 3 (80% or more)

Smi	Group label
C=C(C)[C@@H]1CC[C@]2(C(=O)O)CC[C@]3(C)[C@H](CC[C@@H]4[C@@]5(C)CC[C@H](OCc6cn(-c7cccc(I)c7)nn6)C(C)(C)[C@@H]5CC[C@]43C)[C@@H]12	category 1

Lab note: next molecule to report on.
Query string: For C=C(C)[C@@H]1CC[C@]2(C(=O)O)CC[C@]3(C)[C@H](CC[C@@H]4[C@@]5(C)CC[C@H](OCc6cn(-c7ccc(CC#N)cc7)nn6)C(C)(C)[C@@H]5CC[C@]43C)[C@@H]12 , which inhibition of growth at 50 µM bin applies?
Result string: category 3
